Test system: Mus musculus
Test: Antinociceptive potencie was assessed after subcutaneous administration of compound by hotplate test (HP) in mice
Format: functional
Class (by AD50) -- A = under 40 nmol/kg, B = from 40 nmol/kg up to 300 nmol/kg, C = 300 nmol/kg and over

Exercise: Using the reported AD50, which band applies to "CCO[C@@]12CCC(=O)[C@]3(C)Oc4c(O)ccc5c4[C@@]31CCN(CCc1ccccc1)[C@@H]2C5" ?
Solution: B

Exercise: Using the reported AD50, which band applies to "CN1CC[C@]23c4c5ccc(O)c4O[C@H]2C(=O)CC[C@@]3(OCc2c(Cl)cccc2Cl)[C@H]1C5" ?
Solution: C

Exercise: Using the reported AD50, which band applies to "CO[C@@]12CCC(=O)[C@@H]3Oc4c(O)ccc5c4[C@@]31CCN(C)[C@@H]2C5" ?
Solution: B

Exercise: Using the reported AD50, which band applies to "C=CCO[C@@]12CCC(=O)[C@@H]3Oc4c(O)ccc5c4[C@@]31CCN(C)[C@@H]2C5" ?
Solution: A

Exercise: Using the reported AD50, which band applies to "CN1CC[C@]23c4c5ccc(O)c4O[C@H]2C(=O)CC[C@@]3(OCc2cccc3ccccc23)[C@H]1C5" ?
Solution: A

Exercise: Using the reported AD50, which band applies to "CN1CC[C@]23c4c5ccc(O)c4O[C@H]2[C@@H](O)C=C[C@H]3[C@H]1C5" ?
Solution: C

Exercise: Using the reported AD50, which band applies to "CN1CC[C@]23c4c5ccc(O)c4O[C@@]2(C)C(=O)CC[C@@]3(OCc2ccccc2)[C@H]1C5" ?
Solution: B

Exercise: Using the reported AD50, which band applies to "CN1CC[C@]23c4c5ccc(O)c4O[C@H]2C(=O)CC[C@@]3(OCc2ccccc2)[C@H]1C5" ?
Solution: A

Exercise: Using the reported AD50, which band applies to "CO[C@@]12CCC(=O)[C@]3(C)Oc4c(O)ccc5c4[C@@]31CCN(C)[C@@H]2C5" ?
Solution: B

====

Molecular target: Opioid receptors; mu & delta (Rattus norvegicus) (UniProt P33533+P33535)
Sequence (P33533 whole entry, looked up): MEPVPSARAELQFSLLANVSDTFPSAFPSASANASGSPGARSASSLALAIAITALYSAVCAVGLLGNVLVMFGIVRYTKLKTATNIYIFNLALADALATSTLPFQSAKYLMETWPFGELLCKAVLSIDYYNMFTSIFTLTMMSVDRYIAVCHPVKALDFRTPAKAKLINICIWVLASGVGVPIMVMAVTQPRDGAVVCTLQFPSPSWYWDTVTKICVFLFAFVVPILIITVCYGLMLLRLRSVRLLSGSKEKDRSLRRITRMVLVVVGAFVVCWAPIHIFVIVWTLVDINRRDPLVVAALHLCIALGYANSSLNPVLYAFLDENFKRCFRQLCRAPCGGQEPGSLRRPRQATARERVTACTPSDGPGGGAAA
Sequence (P33535 whole entry, looked up): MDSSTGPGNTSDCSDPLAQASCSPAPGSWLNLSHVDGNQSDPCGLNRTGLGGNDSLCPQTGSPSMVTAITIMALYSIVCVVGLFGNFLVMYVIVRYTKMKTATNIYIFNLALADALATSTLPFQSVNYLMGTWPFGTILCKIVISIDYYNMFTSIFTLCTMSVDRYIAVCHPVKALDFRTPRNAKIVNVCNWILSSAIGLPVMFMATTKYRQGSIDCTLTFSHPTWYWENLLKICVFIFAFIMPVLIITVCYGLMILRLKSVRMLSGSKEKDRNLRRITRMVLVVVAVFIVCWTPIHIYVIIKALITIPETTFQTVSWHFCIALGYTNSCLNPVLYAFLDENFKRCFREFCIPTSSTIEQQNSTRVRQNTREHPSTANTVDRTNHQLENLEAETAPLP
Assay: Ratio of binding affinities for opioid receptors delta and mu
Assay type: protein assay
Under this convention, Yes denotes Selectivity strictly below 20 and No denotes Selectivity at or above 20.

Cpd Smiles: CN1CC[C@]23c4c5ccc(O)c4O[C@H]2C(=O)CC[C@@]3(OCc2ccccc2)[C@H]1C5
Label Class: Yes
--
Cpd Smiles: C=CCO[C@@]12CCC(=O)[C@@H]3Oc4c(O)ccc5c4[C@@]31CCN(C)[C@@H]2C5
Label Class: No
--
Cpd Smiles: CN1CC[C@]23c4c5ccc(O)c4O[C@H]2C(=O)CC[C@@]3(OCc2cccc3ccccc23)[C@H]1C5
Label Class: Yes
--
Cpd Smiles: CN1CC[C@]23c4c5ccc(O)c4O[C@H]2C(=O)CC[C@@]3(OCc2c(Cl)cccc2Cl)[C@H]1C5
Label Class: Yes

Please turn your attention to the following entry.
Exercise: Confirm or reject: Selectivity of "CO[C@@]12CCC(=O)[C@]3(C)Oc4c(O)ccc5c4[C@@]31CCN(C)[C@@H]2C5" lies strictly below 20
Solution: No

====

Please consider the recorded Ki for Kappa-type opioid receptor (Cavia porcellus, UniProt P41144) in what follows.
One number for each entry, in nM.

Here's what some known entries look like.
Cpd Smiles: CO[C@@]12CCC(=O)[C@]3(C)Oc4c(O)ccc5c4[C@@]31CCN(C)[C@@H]2C5
Ki, nM: 25.2
//
Cpd Smiles: CN1CC[C@]23c4c5ccc(O)c4O[C@H]2C(=O)CC[C@@]3(OCc2cccc3ccccc23)[C@H]1C5
Ki, nM: 0.92

Your task in this section: give Ki for each listed record.
1. C=CCO[C@@]12CCC(=O)[C@@H]3Oc4c(O)ccc5c4[C@@]31CCN(C)[C@@H]2C5
2. CN1CC[C@]23c4c5ccc(O)c4O[C@@]2(C)C(=O)CC[C@@]3(OCc2ccccc2)[C@H]1C5
3. CN1CC[C@]23c4c5ccc(O)c4O[C@H]2C(=O)CC[C@@]3(OCc2ccccc2)[C@H]1C5
4. CCO[C@@]12CCC(=O)[C@]3(C)Oc4c(O)ccc5c4[C@@]31CCN(CCc1ccccc1)[C@@H]2C5
5. CN1CC[C@]23c4c5ccc(O)c4O[C@H]2C(=O)CC[C@@]3(OCc2c(Cl)cccc2Cl)[C@H]1C5

Solution:
[33.8, 2.46, 1.18, 83.2, 33.2]

meta.source: ChEMBL document CHEMBL1144424
